test system: Escherichia coli; experiment: In vitro antibacterial activity against Escherichia coli 1850E strain and compared to imipenem; assay type: functional
readout type: MIC (µg/mL)
Answers are plain numbers, in µg/mL.

Could you tell me MIC for each of these compounds? They are listed below.
1. C[C@@H](O)[C@H]1C(=O)N2C(C(=O)[O-])=C3[C@@H](OCCCN=[N+]=[N-])CCC[C@@H]3[C@H]12.[Na+]
2. C[C@@H](O)[C@H]1C(=O)N2C(C(=O)[O-])=C3[C@@H](OCC/N=C/N)CCC[C@@H]3[C@H]12.[Na+]
3. C/C(N)=N\CCO[C@H]1CCC[C@H]2C1=C(C(=O)[O-])N1C(=O)[C@H]([C@@H](C)O)[C@@H]21.[Na+]
4. C[C@@H](O)[C@H]1C(=O)N2C(C(=O)[O-])=C3[C@@H](OCCCN)CCC[C@@H]3[C@H]12.[Na+]
5. C[C@@H](O)[C@H]1C(=O)N2C(C(=O)[O-])=C3[C@@H](OCCN=[N+]=[N-])CCC[C@@H]3[C@H]12.[Na+]

**A:**
8
1
1
0.5
8

* * *

Hi there, I'd appreciate the recorded MIC for every entry that follows.
tested on: Escherichia coli; assay: In vitro antibacterial activity against Escherichia coli 1919E beta-lactamase producing strain and compared to imipenem; assay type: functional
Hey, just the number and the unit after it is fine.

{"smiles notation": "C[C@@H](O)[C@H]1C(=O)N2C(C(=O)[O-])=C3[C@@H](OCCN)CCC[C@@H]3[C@H]12.[Na+]", "tgt": "Escherichia coli", "measured value": "0.5 µg/mL"}

Here are 3 molecules. What values of MIC were reported for them?
1. C[C@@H](O)[C@H]1C(=O)N2C(C(=O)[O-])=C3[C@@H](OCCCN)CCC[C@@H]3[C@H]12.[Na+]
2. C[C@@H](O)[C@H]1C(=O)N2C(C(=O)[O-])=C3[C@@H](OCCN=[N+]=[N-])CCC[C@@H]3[C@H]12.[Na+]
3. C[C@@H](O)[C@H]1C(=O)N2C(C(=O)[O-])=C3[C@@H](OCCCN=[N+]=[N-])CCC[C@@H]3[C@H]12.[Na+]

**A:**
1. 0.5 µg/mL
2. 1 µg/mL
3. 1 µg/mL

* * *

Would you mind telling me the reported MIC of each entry?
system: Escherichia coli; assay: In vitro antibacterial activity against Escherichia coli 1919E beta-lactamase producing strain and compared to imipenem; format: functional
Give the number first and the unit second.

See these solved cases before continuing.
{"compound": "C[C@@H](O)[C@H]1C(=O)N2C(C(=O)[O-])=C3[C@@H](OCCCO)CCC[C@@H]3[C@H]12.[Na+]", "MIC": "1 µg/mL"}
{"compound": "C[C@@H](O)[C@H]1C(=O)N2C(C(=O)[O-])=C3[C@@H](OCC/N=C/N)CCC[C@@H]3[C@H]12.[Na+]", "MIC": "1 µg/mL"}
{"compound": "C[C@@H](O)[C@H]1C(=O)N2C(C(=O)O)=C(SCCNC=N)C[C@H]12 [IMIPENEM ANHYDROUS]", "MIC": "0.5 µg/mL"}

**Q:** I would be grateful if you could share the reported MIC for C/C(N)=N\CCO[C@H]1CCC[C@H]2C1=C(C(=O)[O-])N1C(=O)[C@H]([C@@H](C)O)[C@@H]21.[Na+] .
**A:** 0.5 µg/mL
